Data origin, for the record: patent US11753408B2

experimentalSystem: mTOR (Homo sapiens)
assayName: mTOR activity (no method described)
Type: biochemical
measuredParameter: mTOR (µM)
Write the number in µM without appending the unit.

Sample records with mTOR:
O=C(NC1CC1)c1ccc(-n2c(=O)ccc3cnc4ccc(-c5ccc(Cl)cc5)cc4c32)cn1	100
CN(C(=O)c1ccc(-n2c(=O)ccc3cnc4ccc(-c5ccc(Cl)cc5)cc4c32)cc1)C1CC1	0.6716
Cc1ccc(C#N)cc1-n1c(=O)n(C)c2cnc3ccc(-c4ccc(F)cc4)cc3c21	100
O=C(c1ccc(-n2c(=O)ccc3c(Cl)nc4ccc(-c5ccc(Cl)cc5)cc4c32)cc1)N1CCOCC1	100

Short answer for `O=C(c1ccc(-n2c(=O)ccc3cnc4ccc(-c5ccc(F)cc5)cc4c32)cc1)N1CCOCC1` : mTOR was 0.5414

Short answer for `CC(C)(N)c1ccc(-c2ccc3ncc4ccc(=O)n(-c5ccc(C(=O)NC6CC6)cc5)c4c3c2)cc1` : mTOR was 0.6459

Short answer for `O=C(O)c1cccc(-c2ccc3ncc4ccc(=O)n(-c5ccc(C(=O)N6CCOCC6)cc5)c4c3c2)c1` : mTOR was 1.557

Short answer for `Cc1cc(=O)n(-c2ccc(C(=O)NC3CC3)cc2)c2c1cnc1ccc(-c3ccc(Cl)cc3)cc12` : mTOR was 100

Short answer for `Cc1cc(C(=O)N2CCOCC2)ccc1-n1c(=O)ccc2cnc3ccc(-c4ccc(Cl)cc4)cc3c21` : mTOR was 9.459
